Listed below: activation at […] values for each entry.
# Tested on: 15-PGDH luciferase fusion construct in V9m reporter cell line
# assay-procedure: 15-PGDH-luciferase fusion gene reporter induction, V9m cells
# Type: cell-based
# condition-info: read-out: V9M-SC3 Reporter activity ([…]) (%), V9m reporter cells, […] compound; % induction of luciferase activity over basal level; read-out: V9M-SC3 Reporter activity (2.5 μM) (%)
Answer with a number only, understood to be in %.

Hello, please tell me recorded activation at […] for this one: COc1ccc(OC)c(N(CC(=O)Nc2cncnc2)S(=O)(=O)c2ccccc2)c1 [SW203683]
137

Hello, please tell me recorded activation at […] for this one: COc1ccc(OC)c(N(CC(=O)Nc2csnc2C)S(=O)(=O)c2ccccc2)c1 [SW203703]
108

Hello, please tell me recorded activation at […] for this one: COc1ccc(S(=O)(=O)N(CC(=O)N2CCCCC2)c2cc(OC)ccc2OC)cc1 [SW207999]
128

Hello, please tell me recorded activation at […] for this one: COc1ccc(OC)c(N(CC(=O)Nc2cccnc2)S(=O)(=O)c2ccc(C)cc2)c1 [SW202939]
75.3

---
Hello, please tell me recorded activation at […] for this one: COc1ccc(OC)c(N(CC(=O)Nc2cccnc2Cl)S(=O)(=O)c2ccccc2)c1 [SW202973]
-15.6

Hello, please tell me recorded activation at […] for this one: COc1ccc(OC)c(N(CC(=O)Nc2ccncc2)S(=O)(=O)c2ccccc2)c1 [SW202938]
155

Hello, please tell me recorded activation at […] for this one: COc1ccc(OC)c(N(CC(=O)Nc2cccnc2)S(=O)(=O)c2ccccc2F)c1 [SW202947]
21.9
